Provenance of the data: patent US4508727A

# target_system: angiotensin-converting enzyme (ACE) isolated from pig's renal cortex (Sus scrofa)
# Construct: isolated from pig's renal cortex
# Sequence (F1RRW5 34-1309): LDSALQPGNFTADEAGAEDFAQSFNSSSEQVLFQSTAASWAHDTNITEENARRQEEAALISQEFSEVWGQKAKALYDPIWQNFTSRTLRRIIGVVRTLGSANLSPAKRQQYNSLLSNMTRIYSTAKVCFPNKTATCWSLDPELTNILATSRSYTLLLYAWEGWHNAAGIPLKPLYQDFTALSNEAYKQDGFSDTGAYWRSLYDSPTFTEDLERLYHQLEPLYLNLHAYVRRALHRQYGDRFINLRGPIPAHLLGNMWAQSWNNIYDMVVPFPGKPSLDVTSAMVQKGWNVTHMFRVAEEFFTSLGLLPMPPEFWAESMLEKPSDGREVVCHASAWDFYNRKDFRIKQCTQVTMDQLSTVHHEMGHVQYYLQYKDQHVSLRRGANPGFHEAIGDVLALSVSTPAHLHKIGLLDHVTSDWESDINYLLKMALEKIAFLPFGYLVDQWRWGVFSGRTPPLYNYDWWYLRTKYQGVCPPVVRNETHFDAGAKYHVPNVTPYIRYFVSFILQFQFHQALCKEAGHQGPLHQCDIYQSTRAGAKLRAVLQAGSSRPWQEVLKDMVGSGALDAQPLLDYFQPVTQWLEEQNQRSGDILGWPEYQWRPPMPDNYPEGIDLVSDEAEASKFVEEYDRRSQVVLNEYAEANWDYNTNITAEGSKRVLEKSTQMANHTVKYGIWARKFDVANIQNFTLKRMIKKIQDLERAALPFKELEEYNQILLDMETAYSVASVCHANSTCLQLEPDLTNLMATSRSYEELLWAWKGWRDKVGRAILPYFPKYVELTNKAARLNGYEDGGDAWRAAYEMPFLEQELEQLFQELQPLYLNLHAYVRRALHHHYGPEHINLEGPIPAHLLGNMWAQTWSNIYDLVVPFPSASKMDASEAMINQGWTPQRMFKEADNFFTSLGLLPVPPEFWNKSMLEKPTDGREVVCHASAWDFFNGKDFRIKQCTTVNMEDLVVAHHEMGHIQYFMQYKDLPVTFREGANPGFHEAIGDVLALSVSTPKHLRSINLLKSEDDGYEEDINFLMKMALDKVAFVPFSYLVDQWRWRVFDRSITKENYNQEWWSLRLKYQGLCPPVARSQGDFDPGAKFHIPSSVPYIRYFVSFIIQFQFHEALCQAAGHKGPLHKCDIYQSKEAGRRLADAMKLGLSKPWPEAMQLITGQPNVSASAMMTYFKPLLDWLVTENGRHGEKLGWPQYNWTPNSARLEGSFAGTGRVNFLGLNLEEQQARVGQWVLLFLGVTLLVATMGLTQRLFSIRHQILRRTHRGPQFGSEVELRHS
# assay_comment: ACE-inhibitory activity in vitro
# experimental_conditions: substrate hippuryl-histidyl-leucine, 37° C., 20 minutes
result_type: pIC50
# pIC50 = -log10(concentration in molar units)

Example compounds with recorded pIC50:
{"compound": "C[C@H](N[C@@H](CCc1ccccc1)C(=O)O)C(=O)N1C(=O)N(Cc2ccccc2)C[C@H]1C(=O)O [Example 8]", "pIC50": 8.77}
{"compound": "CC(C)C[C@H](N[C@@H](C)C(=O)N1C(=O)N(Cc2ccccc2)C[C@H]1C(=O)O)C(=O)O [Example 12-(2)]", "pIC50": 8.68}

Query: pIC50 for CCCCCCCC[C@H](N[C@@H](C)C(=O)N1C(=O)N(Cc2ccccc2)C[C@H]1C(=O)O)C(=O)O [Example 9] ?
Reply: 8.82

Query: Would you kindly repeat that for CC[C@H](N[C@@H](CCc1ccccc1)C(=O)O)C(=O)N1C(=O)N(Cc2ccccc2)C[C@H]1C(=O)O [Example 17-(2)] ?
Reply: 8.64

Query: And CCCCCCCC[C@H](N[C@@H](CC)C(=O)N1C(=O)N(Cc2ccccc2)C[C@H]1C(=O)O)C(=O)O [Example 15-(3)] ?
Reply: 8.85

Query: What do you have for CC(C)CC[C@H](N[C@@H](C)C(=O)N1C(=O)N(Cc2ccccc2)C[C@H]1C(=O)O)C(=O)O [Example 13-(2)] ?
Reply: 8.48

Query: Same lookup for C[C@H](N[C@@H](Cc1ccccc1)C(=O)O)C(=O)N1C(=O)N(Cc2ccccc2)C[C@H]1C(=O)O [Example 14-(3)] , please.
Reply: 7.96
